test: Partition coefficient (logP); format: physicochemical; conditions: octanol/water
We'd kindly ask you to apply these logP classes: range A: < 0.4; range B: ≥ 0.4 and < 2; range C: ≥ 2

>  <smiles.record>
O=[N+]([O-])c1ccc(Nc2nc(NCCCn3ccnc3)nc(NCCCn3ccnc3)n2)cc1

>  <assigned.label>
range A

$$$$

Would you mind sorting O=[N+]([O-])c1ccc(Nc2nc(N3CCN(Cc4ccccc4)CC3)nc(N3CCN(Cc4ccccc4)CC3)n2)cc1 into the appropriate category? range B

Subsequent entry: O=[N+]([O-])c1ccc(Nc2nc(Nc3cccc(F)c3)nc(Nc3cccc(F)c3)n2)cc1 range B

Let us now turn to O=[N+]([O-])c1ccc(Nc2nc(N3CCOCC3)nc(N3CCOCC3)n2)cc1 range A

Note, next up: O=[N+]([O-])c1ccc(Nc2nc(N3CCN(c4ccccc4)CC3)nc(N3CCN(c4ccccc4)CC3)n2)cc1 range B

// repeat for CC1(C)N=C(N)N=C(N)N1c1ccc(Cl)cc1 and report range C

Same question for CC(C)(C)Nc1nc(Nc2ccc([N+](=O)[O-])cc2)nc(NC(C)(C)C)n1 please. range C

Field entry: O=[N+]([O-])c1ccc(Nc2nc(NC3CCCCC3)nc(NC3CCCCC3)n2)cc1 range A

Another compound to look at: O=[N+]([O-])c1ccc(Nc2nc(N3CCCC3)nc(N3CCCC3)n2)cc1 range C

Can you handle CCN(CC)c1nc(Nc2ccc([N+](=O)[O-])cc2)nc(N(CC)CC)n1 next? range C

Try this compound next: O=[N+]([O-])c1ccc(Nc2nc(N3CCCCC3)nc(N3CCCCC3)n2)cc1 range C

Lookup O=[N+]([O-])c1ccc(Nc2nc(N3CCc4cccnc4C3)nc(N3CCc4cccnc4C3)n2)cc1 range B

Same thing, different compound: O=[N+]([O-])c1ccc(Nc2nc(NC3CCCCCC3)nc(NC3CCCCCC3)n2)cc1 range A

Next compound: CN1CCN(c2nc(Nc3ccc([N+](=O)[O-])cc3)nc(N3CCN(C)CC3)n2)CC1 range A

Next up: O=[N+]([O-])c1ccc(Nc2nc(NCCO)nc(NCCO)n2)cc1 range A

Ok, now O=[N+]([O-])c1ccc(Nc2nc(NCc3ccccc3)nc(NCc3ccccc3)n2)cc1 range B
